# Tested on: rabbit skeletal myofibrils (fast skeletal myofibrils)
# run.description: Activation of fast skeletal myofibrils (PUMA assay, PK/LDH-coupled ATPase at pCa25)
# Format: biochemical
# reported.conditions: median AC1.4 class, procedure of Example 39

record.smiles	Mean AC1.4
OC(O)(c1cnc(-c2ccc(NCC3(c4ncccc4F)CCC3)nn2)s1)C(F)(F)F	B (B=1-10 uM)
O=c1[nH]nc(-c2cnc(-c3ccc(NCC4(c5ncccc5F)CCC4)nn3)s2)o1	B (B=1-10 uM)
Fc1cccnc1C1(Nc2ccc(-c3ccc4cn[nH]c4c3)nn2)CCC1	B (B=1-10 uM)

* * *

# Tested on: rabbit skeletal myofibrils (fast skeletal myofibrils)
# run.description: Activation of fast skeletal myofibrils (PUMA assay, PK/LDH-coupled ATPase at pCa25)
# Format: biochemical
# reported.conditions: AC1.4 determined according to the procedure of Example 39; reported as class symbols
outcome.measure: Mean AC1.4

record.smiles	Mean AC1.4
Nc1ccc(-c2ccc(NCC3(c4ncccc4F)CCC3)nn2)cc1F	A (A=<1 uM)
CC(C)(CNc1ccc(-c2ccccn2)nn1)c1ccc(F)cc1	B (B=1-10 uM)
NC(=O)c1cccc(-c2ccc(NCC3(c4ccc(F)cn4)CCC3)nn2)c1	B (B=1-10 uM)
Cc1ccc(C(N)=O)cc1-c1ccc(NCC2(c3ncccc3F)CCC2)nn1	B (B=1-10 uM)
CC(C)(CNc1ccc(-c2ccc3[nH]nc(N)c3c2)nn1)c1cccc(C(N)=O)c1	D (D=>20 uM)
CC(C)(CNc1nnc(-c2cccc(C(N)=O)c2)cc1C(N)=O)c1ccc(F)cc1	B (B=1-10 uM)
CN(C)Cc1cccc(C(C)(C)CNc2ccc(-c3ccc4[nH]nc(N)c4c3)nn2)c1	D (D=>20 uM)
CC(C)(CNc1ccc(-c2ccc(C(N)=O)cn2)nn1)c1ccc(F)cc1	B (B=1-10 uM)

API: the following record is the query input.
q: Item CC(C)(CNc1ccc(-c2ccccc2Cl)nn1)c1ccc(F)cc1 has what recorded Mean AC1.4?
a: A (A=<1 uM)
